- procedureDetails: Pharmacokinetic analysis in BALB/c mice
- Format: in vivo, mouse
- testParameters: male, BALB/c, mouse, plasma, PO, 10 mg/kg
quantity: Tmax (min)

{"compound": "O=C1CCC(N2Cc3c(NC(=O)COCCCCOc4ccc(C5CCN(C6=Nn7c(nnc7C(F)(F)F)CC6)CC5)cc4)cccc3C2=O)C(=O)N1 (stereo not shown) [ITRI-126]", "quantity": "Tmax", "unitTag": "min", "obsValue": 42}

---

- procedureDetails: Pharmacokinetic analysis in BALB/c mice
- Assay type: in vivo, mouse
- testParameters: male, BALB/c, mouse, plasma, PO, 10 mg/kg, read-out: BA (bioavailability)

{"compound": "O=C1CCC(N2Cc3c(NC(=O)COCCCCOc4ccc(C5CCN(C6=Nn7c(nnc7C(F)(F)F)CC6)CC5)cc4)cccc3C2=O)C(=O)N1 (stereo not shown) [ITRI-126]", "bioavailability (%)": 4.6}
